Hey, just so you know, these numbers are from patent US10294202B2.

# Test system: barnyardgrass
# PROTOCOL_TEXT: Test C flooded paddy test
# Assay type: in vivo, Echinochloa crus-galli
# PARTICULARS: Flood, 250 g ai/ha; scale of 0 to 100 where 0 is no effect and 100 is complete control; 13 to 15 days
True if Plant response rating, Barnyardgrass is below 60. False if not; exact matches included in False.

Below 60 on Plant response rating, Barnyardgrass? Entry "O=C1NC[C@@H](c2cccc(C(F)(F)F)c2)[C@@H]1C(=O)Nc1cccc(F)c1F" True

# strict comparison: is reported Plant response rating, Barnyardgrass < 60? input = CN1CC(c2ccc(F)cc2)C(C(=O)Nc2ccccc2F)C1=O (stereo not drawn) True

For O=C1NCC(c2ccc(F)c(F)c2)C1C(=O)Nc1ccc(F)c(F)c1F (stereo not drawn) , is the recorded Plant response rating, Barnyardgrass below the cut-off of 60? True

# check: Plant response rating, Barnyardgrass < 60 for CC(C)c1cccc(C2CNC(=O)C2C(=O)Nc2ccccc2F)c1 (stereo not drawn) False
